Quick reference: normalized growth of the listed items.
assayProtocol: chemical genetic growth profiling, strain panel (AID 1159580);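 note: tested at 20 µM; growth read once vehicle control cultures reached saturation at 30 °C; 1 = growth at the plate median or of vehicle wells; lower values mean less growth of the strain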
studyConditions: S. cerevisiae deletion strains, growth OD, locus YGR092W, strain DBF2, stronger effect = lower value
The whole screen tested about 5,500 compounds, of which about 2,000 (36%) were called active. Another 18% or so got no clear call; they are omitted. Some of the results follow.
Lab note: jot down the number only; don't add units.

The cases that follow already have their normalized growth on record.
Clc1cc(Cl)cc(-c2nc(SCc3ccc(Cl)cc3Cl)n[nH]2)c1 ... 0.839
CC(C)Cc1ccc(C(C)C(=O)Nc2nn(C)c3ccccc23)cc1 (stereo unspecified) ... 0.931
O=C(c1cccs1)N(Cc1cccnc1)Cc1ccc(Cl)cc1Cl ... 0.984

Tell me the measured normalized growth of CC(C)(C)C(=O)N(Cc1cccnc1)Cc1ccc(Cl)cc1Cl , please.
0.936

Tell me the measured normalized growth of Clc1ccc2c(c1)c1ccccc1n2CN1CCOCC1 , please.
0.208

Tell me the measured normalized growth of OC1CCN(c2cc(C(F)(F)F)nc3cc(Cl)cc(Cl)c23)CC1 , please.
0.994

* * *

Quick reference: normalized growth of the listed items.
assayProtocol: chemical genetic growth profiling, strain panel (AID 1159580)
studyConditions: S. cerevisiae deletion strains, growth OD, locus YPR106W, strain ISR1, stronger effect = lower value
In all, about 5,500 compounds went through this assay and about 2,000 (36%) were called active. Not shown: some 18% with an inconclusive outcome. Some of the results follow.
Lab note: jot down the number only; don't add units.

Cc1nc(-c2ccccn2)nc(N(C)Cc2ccccc2)c1Cl ... 0.974
O=C(Nc1ccc(Cl)cc1)SCc1c(Cl)cccc1Cl ... 0.963
O=[N+]([O-])c1cnc(Sc2nnc(SCc3cccc(C(F)(F)F)c3)s2)s1 ... 0.0861
O=[N+]([O-])c1ccc(S(=O)(=O)c2ccccc2)nc1S(=O)(=O)c1ccccc1 ... 0.921
O=C(NCC1COc2ccccc2O1)c1ccc(Cl)cc1 (stereo not drawn) ... 0.968

Tell me the measured normalized growth of COc1cccc(NC(=S)NC2CC(C)CC(C)(C)C2)c1 (stereo not drawn) , please.
0.994

Tell me the measured normalized growth of O=C(CSCc1csc2ccccc12)Nc1ccc(F)c(Cl)c1 , please.
0.961

Tell me the measured normalized growth of O=C(NCC(c1ccccc1)c1c[nH]c2ccccc12)c1ccc(C(F)(F)F)cc1 (stereo not drawn) , please.
0.976

Tell me the measured normalized growth of Fc1ccc(NC(=S)N2CCCN(Cc3ccc(Cl)cc3Cl)CC2)cc1 , please.
0.99

Tell me the measured normalized growth of O=C(c1ccc(Cl)cc1)N(Cc1ccccc1)Cc1cccnc1 , please.
0.995

Tell me the measured normalized growth of Nc1ccccc1C(=O)N/N=C\c1cc(Br)ccc1O , please.
0.968

Tell me the measured normalized growth of Cc1nc(-c2cccnc2)nc(NCc2ccccc2)c1Cl , please.
0.953

* * *

assayProtocol: chemical genetic growth profiling, strain panel (AID 1159580);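 note: tested at 20 µM; growth read once vehicle control cultures reached saturation at 30 °C; 1 = growth at the plate median or of vehicle wells; lower values mean less growth of the strain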
studyConditions: S. cerevisiae deletion strains, growth OD, locus YJL187C, strain SWE1, stronger effect = lower value
Out of some 5,500 compounds screened, about 2,000 (36%) were called active. Roughly 18% stayed inconclusive and do not appear here. The list shows a part of the results.
// assign criterion met if normalized growth falls strictly below 1, else criterion not met (ties count as criterion not met)

CCOC(=O)c1nc(-c2ccccc2)sc1C(=O)OCC ... criterion met
C[C@@H]1OC(O[C@H]2C(O[C@H]3CC[C@@]4(C)C(CC[C@]5(C)C4CC=C4C6CC(C)(C)CC[C@]6(C(=O)O)CC[C@]45C)[C@]3(C)CO)OC[C@H](O)[C@@H]2O)[C@H](O)[C@H](O)[C@H]1O (some centres undefined) ... criterion met
CC1(C)CC[C@]2(C(=O)O)CC[C@]3(C)C(=CCC4[C@@]5(C)CC[C@H](O)[C@@](C)(CO)C5CC[C@]43C)C2C1 (some centres undefined) ... criterion not met
CC(C)=CCCC1(C)C=Cc2c(O)c3c(c(CC=C(C)C)c2O1)OC12C(=CC4CC1C(C)(C)OC2(C/C=C(/C)C(=O)O)C4=O)C3=O (centres undefined) ... criterion met

Below 1 on normalized growth? Entry CCCc1nc(-c2ccccn2)[nH]c(=O)c1CC1CC1
criterion met

Below 1 on normalized growth? Entry CCOC(=O)c1sc(-c2ccc(C)cc2)nc1O
criterion met

Below 1 on normalized growth? Entry C[C@@H]1CC[C@H]2[C@@H](C)C(O)O[C@@H]3O[C@@]4(C)CC[C@@H]1[C@]32OO4 (some centres undefined)
criterion met

Below 1 on normalized growth? Entry COc1cccc2c1C(=O)c1c(O)c3c(c(O)c1C2=O)C[C@@](O)(C(=O)CO)C[C@@H]3O[C@H]1C[C@H](N)[C@@H](O)[C@H](C)O1
criterion met

Below 1 on normalized growth? Entry CC(C)(C)c1nccc(-c2nn(-c3ccc(F)cc3)ccc2=O)n1
criterion not met

Below 1 on normalized growth? Entry COc1cccc2c1C(=O)c1c(O)c3c(c(O)c1C2=O)C[C@@](O)(C(=O)CO)C[C@@H]3OC1C[C@H](N)[C@H](O)[C@H](C)O1 (some centres undefined)
criterion met

Below 1 on normalized growth? Entry CCOc1ccc2nc3cc(N)ccc3c(N)c2c1
criterion met

Below 1 on normalized growth? Entry CSC(=CC(=O)c1ccc(Cl)cc1)SC
criterion met

Below 1 on normalized growth? Entry C#C[C@]1(OC(C)=O)CCC2C3CCC4=C/C(=N\O)CCC4C3CC[C@@]21CC (some centres undefined)
criterion met

* * *

assayProtocol: chemical genetic growth profiling, strain panel (AID 1159580);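 note: tested at 20 µM; growth read once vehicle control cultures reached saturation at 30 °C; 1 = growth at the plate median or of vehicle wells; lower values mean less growth of the strain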
studyConditions: S. cerevisiae deletion strains, growth OD, locus YCL061C, strain MRC1, stronger effect = lower value
Hit rate of the full screen: of about 5,500 compounds, about 2,000 (36%) were called active. About 18% were inconclusive and are not listed. Some of the results follow.
experimentalEndpoint: normalized growth
Lab note: jot down the number only; don't add units.

The cases that follow already have their normalized growth on record.
Cn1c(CSCC(=O)Nc2ccccc2)n[nH]c1=S ... 1.02
O=C(Nc1cc2cc([N+](=O)[O-])ccc2oc1=O)c1c(F)cccc1F ... 0.989
OC(CCN1CCCCC1)(c1ccccc1)C1CC2C=CC1C2 (configuration not stated) ... 0.996
OC(CCN1CCCC1)(c1ccccc1)C1CCCCC1 (configuration not stated) ... 0.976
COc1cc(N)c(Cl)cc1C(=O)NC1CCN(Cc2ccccc2)CC1 ... 0.984
C/C=C(/C)C(=O)O[C@@H]1[C@H](OC(C)=O)[C@@]2(CO)C(CC1(C)C)C1=CCC3[C@@]4(C)CC[C@H](O[C@@H]5O[C@H](C(=O)O)[C@@H](O[C@@H]6O[C@H](CO)[C@@H](O)[C@H](O)[C@H]6O)[C@H](O)[C@H]5O[C@@H]5O[C@H](CO)[C@@H](O)[C@H](O)[C@H]5O)[C@](C)(CO)C4CC[C@@]3(C)[C@]1(C)C[C@H]2O (some centres not stated) ... 0.981
COC(=O)C[C@H]1C(C)(C)C(=O)[C@@H]2CC3C4=CC(=O)O[C@@H](c5ccoc5)[C@]4(C)CCC3[C@@]1(C)C2=O (some centres not stated) ... 0.976
S=C(NCc1ccccc1)Nc1ccc(Cl)c(Cl)c1 ... 0.866
CC(=O)NC(C(=O)O)C(C)(C)SN=O (configuration not stated) ... 0.999
C[C@H]1[C@H](C)CC[C@]2(CO)CC[C@]3(C)C(=CCC4[C@@]5(C)CC[C@H](O)C(C)(C)C5CC[C@]43C)[C@H]12 (some centres not stated) ... 1

Tell me the measured normalized growth of Cc1noc(C)c1-c1nc(-c2cc(C(F)(F)F)cc(C(F)(F)F)c2)no1 , please.
0.992

Tell me the measured normalized growth of Cc1cc(-n2c(=O)[nH]c(=O)n(C)c2=O)ccc1Oc1ccc(SC(F)(F)F)cc1 , please.
0.792

Tell me the measured normalized growth of Clc1ccccc1C(c1ccccc1)(c1ccccc1)n1ccnc1 , please.
0.0642

Tell me the measured normalized growth of CSC(=CC(=O)c1ccc(Cl)cc1)SC , please.
0.848

* * *

assayProtocol: chemical genetic growth profiling, strain panel (AID 1159580);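 note: tested at 20 µM; growth read once vehicle control cultures reached saturation at 30 °C; 1 = growth at the plate median or of vehicle wells; lower values mean less growth of the strain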
studyConditions: S. cerevisiae deletion strains, growth OD, locus YKL009W, strain mrt4
In all, about 5,500 compounds went through this assay and about 2,000 (36%) were called active. Roughly 18% stayed inconclusive and do not appear here. Cut-off read from the data, not from the text of the source: active = normalized growth mostly below about 0.91 (no sharp cut-off); inconclusive = no clear call, values can overlap the other calls; inactive = mostly above about 0.92. Some of the results follow. Where a SMILES comes first, the peptide text is derived from it. Bridges are numbered along the chain shown (N, C = ends). [ ]: non-standard residue; d: D form. The star is where a group is joined. ξ: configuration not given here. ξDab(CH2SO3H) = NC(CCNCS(=O)(=O)O)C(=O)O; Heptanoyl(6-Me) = CC(C)CCCCC(=O)*; Dab = NCC[CH](N)C(=O)O
I would appreciate it if you answered using one of these outcomes: active, inactive

Example results:
C/C=C(/C)C(=O)O[C@@H]1[C@H](OC(C)=O)[C@@]2(CO)C(CC1(C)C)C1=CCC3[C@@]4(C)CC[C@H](O[C@@H]5O[C@H](C(=O)O)[C@@H](O[C@@H]6O[C@H](CO)[C@@H](O)[C@H](O)[C@H]6O)[C@H](O)[C@H]5O[C@@H]5O[C@H](CO)[C@@H](O)[C@H](O)[C@H]5O)[C@](C)(CO)C4CC[C@@]3(C)[C@]1(C)C[C@H]2O (stereo not given in full) ... inactive
CCOP(=S)(OCC)Oc1nc(Cl)c(Cl)cc1Cl ... inactive
NCCC(=O)N[C@@H](Cc1cnc[nH]1)C(=O)O ... inactive
C/C=C(/C)C(=O)OC1CCC2(C)C3CCC4C5(O)CC(O)C6(O)C(CN7CC(C)CCC7C6(C)O)C5(O)CC42OC13O (stereo not given) ... inactive

Assay outcome for CCC(C)C1NC(=O)C(CCNCS(=O)(=O)O)NC(=O)C(NC(=O)C(CCNCS(=O)(=O)O)NC(=O)C(NC(=O)C(CCNCS(=O)(=O)O)NC(=O)CCCCC(C)C)C(C)O)CCNC(=O)C(C(C)O)NC(=O)C(CCNCS(=O)(=O)O)NC(=O)C(CCNCS(=O)(=O)O)NC(=O)C(C(C)CC)NC1=O (stereo not given) ({Heptanoyl(6-Me)}-[ξDab(CH2SO3H)]T[ξDab(CH2SO3H)][Dab][ξDab(CH2SO3H)]II[ξDab(CH2SO3H)][ξDab(CH2SO3H)]T; lactam 4-C; configuration not given here) : what was it?
inactive

Assay outcome for CC(C)=CCCC1(C)C=Cc2c(O)c3c(c(CC=C(C)C)c2O1)OC12C(=CCCC1C(C)(C)O[C@@]2(C/C=C(\C)C(=O)O)C(=O)O)C3=O (stereo not given in full) : what was it?
inactive

Assay outcome for Nc1ccc(S(=O)(=O)Nc2ccnn2-c2ccccc2)cc1 : what was it?
inactive

Assay outcome for CC1(C)CC[C@@]2(C(=O)O)C(C1)C1=CCC3[C@@]4(C)CC[C@H](O)C(C)(C)C4CC[C@@]3(C)[C@]1(C)C[C@@H]2O (stereo not given in full) : what was it?
active

Assay outcome for CC(C)CC(N(C)C)C1(c2ccc(Cl)cc2)CCC1 (stereo not given) : what was it?
inactive
